System: HL-60
measurement notes: NCI tumour cell line growth inhibition, 48 h
Active and inactive are the calls of the source. No stated cut-off is given here; in the data, active = GI50 up to about 1.1 µM and inactive = higher.
Give GI50 for every item shown.

Data request: Value wanted: GI50 (HL-60) of entry CCOC(=O)c1cc(C(O)P2(=O)N(CC(C)(C)C)[C@@H]3CCCC[C@H]3N2CC(C)(C)C)cn1C(=O)OC(C)(C)C (stereo not given in full)
Data returned: 24.5 µM (inactive)

Data request: Value wanted: GI50 (HL-60) of entry `CCOC(=O)c1nc2cc(C(F)(F)F)ccc2nc1Oc1ccc(OC)cc1`
Data returned: > 100 µM (inactive)

Data request: Value wanted: GI50 (HL-60) of entry `C(/C=N/c1ccccc1)=C(/Nc1ccccc1)c1ccc2ccccc2c1`
Data returned: 1.5 µM (inactive)

Data request: Value wanted: GI50 (HL-60) of entry COc1cc(S(=O)(=O)Nc2ccc(-c3csc(N4C(=O)CSC4c4ccccc4)n3)cc2)ccc1Cl (stereo not given)
Data returned: 20.8 µM (inactive)

Data request: Value wanted: GI50 (HL-60) of entry `COC(=O)c1csc(-c2csc(CCNC(=O)OC(C)(C)C)n2)n1`
Data returned: > 100 µM (inactive)
